experimental.target: HLA-A*0301 (Homo sapiens, UniProt P04439)
Construct: Soluble MHC was dissolved in PBS containing 0.5 mg/ml bovine γ-globulin; made in house
Assay type: binding
measured.metric: FP binding score, percentage inhibition of tracer peptide binding, 4h

INSERT INTO results (substance, result) VALUES
  ('IL[4-FPHE]GSVAHK [I94]', '70%'),
  ('I[AHA][NLE]GSVAHK [I58]', '68%'),
  ('RM[OrnN2]LSAFDER [R83]', '71%'),
  ('I[OrnN2]RGSVAHK [I49]', '71%'),
  ('I[AHA][CSME]GSVAHK [I86]', '71%'),
  ('I[AHA][2-AOC]GSVAHK [I59]', '71%');

###

experimental.target: HLA-A*0301 (Homo sapiens, UniProt P04439)
Construct: Soluble MHC was dissolved in PBS containing 0.5 mg/ml bovine γ-globulin; made in house
Format: binding
measured.metric: FP binding score, percentage inhibition of tracer peptide binding, 4h (%)

INSERT INTO results (substance, readout_number) VALUES
  ('RM[2-AOC]LSAFDER [R50]', 70),
  ('[CSME][AHA]RGSVAHK [I61]', 71),
  ('RMVLSAF[AHA]ER [R81]', 71),
  ('RMVLSAF[2-AOC]ER [R38]', 69),
  ('RM[4-FPHE]LSAFDER [R55]', 70),
  ('I[AHA][CpALA]GSVAHK [I83]', 70);

###

experimental.target: HLA-A*0301 (Homo sapiens, UniProt P04439)
Construct: Soluble MHC was dissolved in PBS containing 0.5 mg/ml bovine γ-globulin; made in house
Assay type: binding
Listed next: entries and their corresponding FP binding score, percentage inhibition of tracer peptide binding, 24h.
measured.metric: FP binding score, percentage inhibition of tracer peptide binding, 24h (%)

INSERT INTO assay_data (substance, experimental_target, readout_number) VALUES
  ('[CSME][AHA]RGSVAHK [I61]', 'HLA-A*0301 (Homo sapiens, UniProt P04439)', 90),
  ('I[AHA][CSME]GSVAHK [I86]', 'HLA-A*0301 (Homo sapiens, UniProt P04439)', 89),
  ('I[AHA][SOME]GSVAHK [I85]', 'HLA-A*0301 (Homo sapiens, UniProt P04439)', 88),
  ('S[NVA][CpALA]FGGFTK [S96]', 'HLA-A*0301 (Homo sapiens, UniProt P04439)', 91),
  ('[2-AOC][AHA]RGSVAHK [I17]', 'HLA-A*0301 (Homo sapiens, UniProt P04439)', 89),
  ('[2-AOC][NLE]RGSVAHK [I60]', 'HLA-A*0301 (Homo sapiens, UniProt P04439)', 91);
